# testTarget: human NaP2b (SLC34A2) (Homo sapiens, UniProt O95436)
# Construct: host or cells: HEK293
# Sequence (O95436 whole entry): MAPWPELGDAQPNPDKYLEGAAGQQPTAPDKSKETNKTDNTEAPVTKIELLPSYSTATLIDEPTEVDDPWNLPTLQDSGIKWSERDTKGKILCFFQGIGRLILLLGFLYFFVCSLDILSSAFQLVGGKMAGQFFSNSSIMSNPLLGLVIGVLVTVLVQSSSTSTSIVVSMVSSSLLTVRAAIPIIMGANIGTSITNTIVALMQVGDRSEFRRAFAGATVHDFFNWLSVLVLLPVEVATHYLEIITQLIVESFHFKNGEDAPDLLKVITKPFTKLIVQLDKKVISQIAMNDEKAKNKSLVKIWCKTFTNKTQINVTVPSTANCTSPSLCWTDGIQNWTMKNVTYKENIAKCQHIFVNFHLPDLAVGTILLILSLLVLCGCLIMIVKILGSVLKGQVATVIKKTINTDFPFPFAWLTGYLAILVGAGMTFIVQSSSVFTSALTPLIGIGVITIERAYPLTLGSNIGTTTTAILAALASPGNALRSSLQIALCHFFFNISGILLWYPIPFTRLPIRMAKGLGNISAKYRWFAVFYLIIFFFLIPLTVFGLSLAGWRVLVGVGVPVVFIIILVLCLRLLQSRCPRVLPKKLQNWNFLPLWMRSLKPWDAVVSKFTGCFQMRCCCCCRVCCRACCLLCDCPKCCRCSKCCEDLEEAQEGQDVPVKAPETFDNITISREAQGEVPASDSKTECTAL
# protocolNotes: Inhibition of NaP2b-mediated Pi (33P) uptake in transfected HEK293 cells, human NaP2b
# Type: cell-based
# protocolConditions: read-out: pIC50 range for human NaP2b (converted)
Assignment: determine reported IC50 for the given compounds.

Ask | Tell me IC50 reported for "CCN(CC)c1ccc(NC(=O)c2cccc(COCCOCCOCCOCCOCCOCCOC(=O)N(CCO)CCO)c2)c(-c2cc(C(=O)NCc3cccc(C(F)(F)F)c3)ccn2)c1"
Reply | < 1 µM

Ask | Tell me IC50 reported for "O=C(O)CCOCCOCCOCCNC(=O)c1cccc(SCc2cccc(C(=O)Nc3ccc(N4CCCCC4)cc3-c3cc(C(=O)N[C@H]4CCCc5ccccc54)ccn3)c2)c1"
Reply | 1 to 7.94 µM

Ask | Tell me IC50 reported for "CN(CCN1CCN(C(=O)N(C)CCOCCOCCOCCC(=O)OC(C)(C)C)CC1)C(=O)c1cccc(C(=O)Nc2ccc(N3CCCCC3)cc2-c2cc(C(=O)N[C@H]3CCCc4ccccc43)ccn2)c1"
Reply | < 1 µM

Ask | Tell me IC50 reported for "CCN(CC)c1ccc(NC(=O)c2cccc(CCCOCCOCCOCCOCCC(=O)N(C)CCOCCOCCOCCOCCOCCOCCOC)c2)c(-c2cc(C(=O)N[C@H]3CCCc4ccccc43)ccn2)c1"
Reply | < 1 µM

Ask | Tell me IC50 reported for "CN(CCN1CCOCC1)C(=O)c1cccc(C(=O)Nc2ccc(OC3CCC3)cc2-c2cc(C(=O)N[C@H]3CCCc4ccccc43)ccn2)c1"
Reply | < 1 µM

Ask | Tell me IC50 reported for "CCN(CC)c1ccc(NC(=O)c2cccc(CCCOCCOCCOCCOCCNC(=O)N(CCO)CCO)c2)c(-c2cc(C(=O)NCc3cccc(C(F)(F)F)c3)ccn2)c1"
Reply | 1 to 7.94 µM

Ask | Tell me IC50 reported for "CCN(CC)c1ccc(NC(=O)c2cccc(CCCOCCOCCOCCOCCOCCC(=O)O)c2)c(-c2cc(C(=O)NCc3cccc(C(F)(F)F)c3)ccn2)c1"
Reply | < 1 µM

Ask | Tell me IC50 reported for "O=C(O)CCOCCOCCOCCOCCCc1cccc(C(=O)Nc2ccc(N3CCCCC3)cc2-c2cc(C(=O)N[C@H]3CCCc4ccccc43)ccn2)c1"
Reply | < 1 µM

Ask | Tell me IC50 reported for "CCN(CC)c1ccc(NC(=O)c2cccc(CSCCOCCOCCOCCOCCC(=O)NC(CO)(CO)CO)c2)c(-c2cc(C(=O)N[C@H]3CCCc4ccccc43)ccn2)c1"
Reply | < 1 µM

Ask | Tell me IC50 reported for "CCN(CC)c1ccc(NC(=O)c2cccc(C(=O)N(C)CCN(C)CCOCCOCCOCCNC(=O)OC(C)(C)C)c2)c(-c2cc(C(=O)N[C@H]3CCCc4ccccc43)ccn2)c1"
Reply | < 1 µM

Ask | Tell me IC50 reported for "CN(CCN1CCOCC1)C(=O)c1cccc(C(=O)Nc2ccc(N3CCCCC3)cc2-c2cc(C(=O)NCc3ccc(C(C)(C)C)cc3)ccn2)c1"
Reply | 1 to 7.94 µM

---

Assignment: determine reported pIC50 for the given molecules.
# testTarget: rat NaP2b (SLC34A2) (Rattus norvegicus)
# Construct: host or cells: HEK293
# Sequence (Q9JJ09 1-695): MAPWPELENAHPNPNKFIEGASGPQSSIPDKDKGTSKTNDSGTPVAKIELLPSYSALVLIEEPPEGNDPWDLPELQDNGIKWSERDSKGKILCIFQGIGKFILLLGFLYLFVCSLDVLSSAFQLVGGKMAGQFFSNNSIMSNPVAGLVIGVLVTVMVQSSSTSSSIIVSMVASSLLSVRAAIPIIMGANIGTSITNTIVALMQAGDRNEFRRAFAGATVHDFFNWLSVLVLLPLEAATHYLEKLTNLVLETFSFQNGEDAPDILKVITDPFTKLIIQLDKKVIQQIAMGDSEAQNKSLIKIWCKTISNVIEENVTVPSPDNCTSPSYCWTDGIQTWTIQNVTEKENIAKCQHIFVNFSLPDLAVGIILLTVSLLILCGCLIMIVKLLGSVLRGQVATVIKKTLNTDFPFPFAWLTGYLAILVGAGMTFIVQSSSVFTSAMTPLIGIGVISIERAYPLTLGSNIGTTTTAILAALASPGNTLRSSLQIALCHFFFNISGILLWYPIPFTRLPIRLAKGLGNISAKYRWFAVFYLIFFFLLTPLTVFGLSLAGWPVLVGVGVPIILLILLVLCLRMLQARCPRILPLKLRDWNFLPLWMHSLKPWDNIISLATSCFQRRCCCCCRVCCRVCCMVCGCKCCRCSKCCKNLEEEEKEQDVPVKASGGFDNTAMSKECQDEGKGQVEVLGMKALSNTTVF
# protocolNotes: Inhibition of NaP2b-mediated Pi (33P) uptake in transfected HEK293 cells, rat NaP2b
# Assay type: cell-based
# protocolConditions: 33P Pi uptake, 0.1 mM phosphate, value given as pIC50 range
pIC50: −log10 of the molar value.

Ask | Tell me pIC50 reported for CCN(CC)c1ccc(NC(=O)c2cccc(CCCOCCOCCOCCOCCOCCOCCOCCOCCOC)c2)c(-c2cc(C(=O)NCc3cccc(C(F)(F)F)c3)ccn2)c1 [Example 269]
Reply | 5.10 to 6.00

Ask | Tell me pIC50 reported for O=C(O)CCSCc1cccc(C(=O)Nc2ccc(N3CCCCC3)cc2-c2cc(C(=O)Nc3nc4ccccc4[nH]3)ccn2)c1 [Example 1.19]
Reply | 4.50 to 5.00

Ask | Tell me pIC50 reported for CCN(CC)c1ccc(NC(=O)c2cccc(C(=O)N(C)CCN3CCN(C(=O)N(C)CCOCCOCCOCCC(=O)OC(C)(C)C)CC3)c2)c(-c2cc(C(=O)N[C@H]3CCCc4ccccc43)ccn2)c1 [Example 212]
Reply | > 6.00
